The measurements presented in this section are drawn from the Human Domainome abundance scans (Beltran et al. 2025).

B1: CD2-associated protein, residues 271 to 331; numbered along this chain, Q9Y5K6 (parent)
chain: KEYCRTLFAYEGTNEDELTFKEGEIIHLISKETGEAGWWRGELNGKEGVFPDNFAVQINEL

- Variants of: B1
- Assay Summary: abundance fitness (aPCA) (normalised: wild type 0, dead -1); higher = more abundant; growth selection in yeast, the domain comes from the species named
- Condition Parameters: Homo sapiens
Quantity: abundance fitness
One number for each entry.

Please review the following examples before continuing.
R40S | -0.609
G12V | -1.1
E17R | -0.483
K46L | -0.223

// for each variant in input: emit abundance fitness
1. E2Q
2. V56Y
3. T19Q
4. D16K

Ans.
-0.05
-0.409
-0.536
0.026

// for each variant in input: emit abundance fitness
1. L7H
2. L61A
3. P51W

Ans.
1. -0.674
2. 0.033
3. -0.533
